# Test system: Setaria viridis
# protocolNotes: Test on herbicidal activity by foliar application
# Format: in vivo
# measurementContext: foliar spray, 1 kg/ha, plants at 1-2 leaf stage in pots, evaluated 14 days after spraying
Readings of Herbicidal activity, Setaria viridis for the listed compounds

• COc1ccc(C(=O)NS(=O)(=O)c2ccccc2C(F)(F)F)nc1 = 5 (90% or more inhibition)

Problem: What value of Herbicidal activity, Setaria viridis has been reported for the following compound? COc1ccc(C(=O)NS(=O)(=O)c2ccccc2OC(F)(F)F)nc1OC
Result: 3 (50% or more-70% inhibition)

Problem: Note, next up: O=C(NS(=O)(=O)c1c(Cl)cccc1Cl)c1cc(Cl)cc(Cl)n1
Result: 5 (90% or more inhibition)

Problem: Another compound to look at: COc1ccc(C(=O)NS(=O)(=O)c2ccccc2S(C)(=O)=O)nc1Br
Result: 5 (90% or more inhibition)

Problem: Also Cc1nc(C(=O)NS(=O)(=O)c2ccccc2S(=O)(=O)N(C)C)ccc1[N+](=O)[O-] , if possible.
Result: 3 (50% or more-70% inhibition)

Problem: And the next one, COc1cc(Cl)nc(C(=O)NS(=O)(=O)c2cccc(Cl)c2Cl)c1 ?
Result: 2 (30% or more-50% inhibition)

Problem: Moving on to the next compound: COc1ccc(C(=O)NS(=O)(=O)c2ccccc2S(=O)(=O)N(C)C)nc1Br
Result: 5 (90% or more inhibition)

Problem: // same read-out, input: COC(=O)c1ccccc1S(=O)(=O)NC(=O)c1cccc(Cl)n1
Result: 5 (90% or more inhibition)

###

# Test system: Abutilon theophrasti
# protocolNotes: Test on herbicidal activity by foliar application
# Format: in vivo
# measurementContext: foliar spray, 1 kg/ha, plants at 1-2 leaf stage in pots, evaluated 14 days after spraying
valueKind: Herbicidal activity, Abutilon theophrasti

- COc1cc(Cl)nc(C(=O)NS(=O)(=O)c2c(Cl)cccc2Cl)c1: 5 (90% or more inhibition)
- COc1cc(Cl)nc(C(=O)NS(=O)(=O)c2ccccc2S(C)(=O)=O)c1: 4 (70% or more-90% inhibition)
- COc1ccc(C(=O)NS(=O)(=O)c2ccccc2C(F)(F)F)nc1: 2 (30% or more-50% inhibition)
- COc1ccc(C(=O)NS(=O)(=O)c2ccccc2S(=O)(=O)N(C)C)nc1: 5 (90% or more inhibition)
- COC(=O)c1ccccc1S(=O)(=O)NC(=O)c1cc(OC)cc(Cl)n1: 5 (90% or more inhibition)
- COC(=O)c1ccccc1S(=O)(=O)NC(=O)c1cccc(Cl)n1: 5 (90% or more inhibition)

Now consider a different compound.
Problem: Form field: reported Herbicidal activity, Abutilon theophrasti of COC(=O)c1ccccc1S(=O)(=O)NC(=O)c1ccc(OC)c(OC)n1
Result: 5 (90% or more inhibition)

###

The following molecules are listed with their measured Herbicidal activity, Convolvulus arvensis values.
# Test system: Convolvulus arvensis
# protocolNotes: Test on herbicidal activity by foliar application
# Format: in vivo
# measurementContext: foliar spray, 1 kg/ha, plants at 1-2 leaf stage in pots, evaluated 14 days after spraying
# Description: […]

* COc1ccc(C(=O)NS(=O)(=O)c2ccccc2S(=O)(=O)N(C)C)nc1OC | 4 (70% or more-90% inhibition)
* COc1cc(Cl)nc(C(=O)NS(=O)(=O)c2ccccc2S(C)(=O)=O)c1 | 5 (90% or more inhibition)
* COc1ccc(C(=O)NS(=O)(=O)c2c(Cl)cccc2Cl)nc1 | 2 (30% or more-50% inhibition)

Problem: Any idea what Herbicidal activity, Convolvulus arvensis was measured for COc1ccc(C(=O)NS(=O)(=O)c2ccccc2C(F)(F)F)nc1 ?
Result: 3 (50% or more-70% inhibition)

Problem: Then this molecule: COc1cc(Cl)cc(C(=O)NS(=O)(=O)c2c(Cl)cccc2Cl)n1
Result: 4 (70% or more-90% inhibition)

Problem: Also need COc1ccc(C(=O)NS(=O)(=O)c2ccccc2OC(F)(F)F)nc1[N+](=O)[O-] , thanks.
Result: 5 (90% or more inhibition)

Problem: Can you check COC(=O)c1ccccc1S(=O)(=O)NC(=O)c1cc(OC)cc(Cl)n1 next?
Result: 5 (90% or more inhibition)

Problem: What do you have for O=C(NS(=O)(=O)c1ccccc1OC(F)(F)F)c1cccc(Cl)n1 ?
Result: 4 (70% or more-90% inhibition)
